Molecular target: SCD (Mus musculus, UniProt P13516)
Construct: from tissue; host or cells: mouse liver microsomes (induced for SCD1 expression)
Sequence (P13516 1-355): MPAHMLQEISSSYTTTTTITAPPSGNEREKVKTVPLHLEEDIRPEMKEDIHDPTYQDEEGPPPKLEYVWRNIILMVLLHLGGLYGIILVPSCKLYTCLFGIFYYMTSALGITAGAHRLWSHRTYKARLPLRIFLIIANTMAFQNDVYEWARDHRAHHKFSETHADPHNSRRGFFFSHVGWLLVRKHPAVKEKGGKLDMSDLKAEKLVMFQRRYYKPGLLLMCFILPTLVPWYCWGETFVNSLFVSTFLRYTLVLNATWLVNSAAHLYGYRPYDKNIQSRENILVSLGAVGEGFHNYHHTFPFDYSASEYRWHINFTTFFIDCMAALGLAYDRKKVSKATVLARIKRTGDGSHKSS
Test: SCD microsomal assay (tritiated stearoyl-CoA, release of labeled water), mouse liver microsomes
Format: biochemical
Conditions: % remaining SCD activity at 10 µM of test compound, 100 µg, preincubation 15 minutes, desaturation period 15 minutes at ambient temperature
Field 'label' (enum: class 1 / class 0). Set to class 1 when activity at 10 µM is strictly under 2%; else class 0.

- COMPOUND: "CC(CCc1ccccc1)NC(=O)c1ccc(N2CCN(C(=O)c3ccc(Cl)cc3Cl)CC2)nc1 (stereo not shown)"
  LABEL_CLASS: "class 0"
- COMPOUND: "Cc1ccsc1C(=O)N1CCN(c2ccc(C(=O)NC(C)CCc3ccccc3)cn2)CC1 (stereo not shown)"
  LABEL_CLASS: "class 0"
- COMPOUND: "CCSCCNC(=O)c1ccc(N2CCN(C(=O)Cc3ccc(C)cc3)CC2)nc1"
  LABEL_CLASS: "class 1"
- COMPOUND: "CC(C)CC(C)NC(=O)c1ccc(N2CCN(C(=O)c3ccccc3C(F)(F)F)CC2)nc1 (stereo not shown)"
  LABEL_CLASS: "class 1"
- COMPOUND: "CCC(CC)C(=O)N1CCN(c2ccc(C(=O)NCCC(C)C)cn2)CC1"
  LABEL_CLASS: "class 1"
- COMPOUND: "COCCCNC(=O)c1ccc(N2CCN(C(=O)c3ccccc3Br)CC2)nc1"
  LABEL_CLASS: "class 1"
- COMPOUND: "CCOCCCNC(=O)c1ccc(N2CCN(C(=O)c3ccccc3Br)CC2)nc1"
  LABEL_CLASS: "class 1"
- COMPOUND: "CCCCOCCCNC(=O)c1ccc(N2CCN(C(=O)c3ccccc3Br)CC2)nc1"
  LABEL_CLASS: "class 1"
- COMPOUND: "Cc1ccccc1CC(=O)N1CCN(c2ccc(C(=O)NCCC(C)C)cn2)CC1"
  LABEL_CLASS: "class 0"
- COMPOUND: "CCCCCNC(=O)c1ccc(N2CCN(C(=O)c3ccc(Cl)cc3Cl)CC2)nc1"
  LABEL_CLASS: "class 1"

---

Target: SCD (Mus musculus)
Construct: from tissue; host or cells: mouse liver microsomes (induced for SCD1 expression)
Assay: SCD microsomal assay (tritiated stearoyl-CoA, release of labeled water), mouse liver microsomes
Type: biochemical
Settings: % remaining SCD activity at 10 µM of test compound, 100 µg, preincubation 15 minutes, desaturation period 15 minutes at ambient temperature

- COMPOUND: "CC(C)CCNC(=O)c1ccc(N2CCN(C(=O)CCC3CCCCC3)CC2)nc1"
  activity at 10 µM (%): 1.3
- COMPOUND: "CCCCOCCCNC(=O)c1ccc(N2CCN(C(=O)c3ccc(C)cc3C)CC2)nc1"
  activity at 10 µM (%): 0.7
- COMPOUND: "CCCC(C)NC(=O)c1ccc(N2CCN(C(=O)CCC3CCCCC3)CC2)nc1 (centres unmarked)"
  activity at 10 µM (%): 2.1
- COMPOUND: "CCCCNC(=O)c1ccc(N2CCN(C(=O)C(CC)CC)CC2)nc1"
  activity at 10 µM (%): 2
- COMPOUND: "CCC(C(=O)N1CCN(c2ccc(C(=O)NCCCc3ccccc3)cn2)CC1)c1ccccc1 (centres unmarked)"
  activity at 10 µM (%): 3.6

---

Biological target: SCD (Mus musculus, UniProt P13516)
Construct: from tissue; host or cells: mouse liver microsomes (induced for SCD1 expression)
Sequence (P13516 1-355): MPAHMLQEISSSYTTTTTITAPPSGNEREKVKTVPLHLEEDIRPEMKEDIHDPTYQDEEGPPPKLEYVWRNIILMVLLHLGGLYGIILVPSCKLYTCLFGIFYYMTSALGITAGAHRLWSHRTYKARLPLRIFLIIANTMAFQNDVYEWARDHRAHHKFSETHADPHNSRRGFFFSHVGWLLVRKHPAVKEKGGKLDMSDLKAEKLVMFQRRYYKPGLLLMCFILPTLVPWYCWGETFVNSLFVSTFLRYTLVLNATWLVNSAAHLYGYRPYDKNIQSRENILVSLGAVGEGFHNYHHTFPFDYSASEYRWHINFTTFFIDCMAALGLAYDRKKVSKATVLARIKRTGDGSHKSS
Test: SCD microsomal assay (tritiated stearoyl-CoA, release of labeled water), mouse liver microsomes
Assay type: biochemical
Conditions: % remaining SCD activity at 10 µM of test compound, 100 µg, preincubation 15 minutes, desaturation period 15 minutes at ambient temperature

- COMPOUND_SMILES: "CCSCCNC(=O)c1ccc(N2CCN(C(=O)CCC3CCCCC3)CC2)nc1"
  TESTED_ON: "SCD (Mus musculus, UniProt P13516)"
  RESULT_UNIT: "%"
  activity at 10 µM: 1.4
- COMPOUND_SMILES: "CCSCCNC(=O)c1ccc(N2CCN(C(=O)c3cc(OC)ccc3Br)CC2)nc1"
  TESTED_ON: "SCD (Mus musculus, UniProt P13516)"
  RESULT_UNIT: "%"
  activity at 10 µM: 1.4
- COMPOUND_SMILES: "CCCCCNC(=O)c1ccc(N2CCN(C(=O)Cc3ccc4ccccc4c3)CC2)nc1"
  TESTED_ON: "SCD (Mus musculus, UniProt P13516)"
  RESULT_UNIT: "%"
  activity at 10 µM: 0.7
- COMPOUND_SMILES: "COc1ccc(Br)c(C(=O)N2CCN(c3ccc(C(=O)NCCc4ccccc4)cn3)CC2)c1"
  TESTED_ON: "SCD (Mus musculus, UniProt P13516)"
  RESULT_UNIT: "%"
  activity at 10 µM: 1.1
